I'd appreciate it if you could supply apparent KD of MS2 coat protein values for the items below.
Test system: MS2 coat protein
METHOD: apparent KD of MS2 coat protein; higher = weaker reporter binding
MEASUREMENT CONTEXT: Eterna round: R107; input ligand: theophylline 20 uM
Response body: numeric value in nM, unit text excluded.

Respond only with apparent KD of MS2 coat protein recorded for UGUGUCGUCUGAAGGAGCGGCUCUUGAUCCUCGUGAGACAUGAGGAUCACCCAUGUCUCGAGCCAGGUAGGUCGCAGGCGGCACA [#26 Exclusion - Arginine B]
12.8

Report apparent KD of MS2 coat protein for CGAUAUGGGACGGCCGCCACUAUUAUGUAACAAAAUAAACAUGAGGAUCACCCAUGUACAUGGGAUAGGACCGGGUCCUAUAACG [#22 Same State - Tryptophan B]
42.5

Kindly indicate its recorded apparent KD of MS2 coat protein. Item: UUGUUGUUUGGAAGGAGCGUGUAAGAUUAAGAACAUGAGGAUCACCCAUGUUUUAAGGGAACACAGGUAGGUCGCCGGGUGGUGG [11.R]
19

Report apparent KD of MS2 coat protein for AAUACCGGUCCUCGAGGGUGAUCCUCAUGACGAGGACCGGUACGGCCGCCACUCGAUAACAUGAGGAUCACCCAUGUAAUCGAGU [|T'-M'-Trp-Ms2|_Design7b]
70.4

Indicate its recorded apparent KD of MS2 coat protein; the sequence in question is AAUUCCUAACAUGAGGAUCACCCAUGUGAAGGAGCGCCGAAUAAGGCAGGUAGGUCGCACAUGGAACCGCUACGAAAGUAGCAAA
23.6

Quick one: give measured apparent KD of MS2 coat protein for GAUCUGUCGGGUGAUACCAGCCUCGGCACAUCUCGUGCCGAACAUGAGGAUCACCCAUGUGGCCCUUGGCAGCACAUGACAAAUC [Regebece]
652

Assign apparent KD of MS2 coat protein to the following record: CCCAGUCAUAGCAGGGCAAAUAUACUCGAAGGAGCGUCAUAGUAGGCAGGUAGGUCGCGAGACAUGAGGAUCACCCAUGUAGAGA [cccmullin]
67

Tell us which apparent KD of MS2 coat protein value is on record for GGUUGAUAUAUAUAUAUAUUGAUUACUGAAGGAGCGGGAAAUAACCCAGGUAGGUCGCAGAGAUCCACAUGAGGAUCACCCAUGU [!0.F]
50.4

Please give the documented apparent KD of MS2 coat protein of ACAUGAGGAUCACCCAUGUUCCUCGCCGAUACCAGUGAAGAAGAACGCCCUUGGCAGCGGAAAGAGUAUUUUGGAGAUGAGGUAC [6.X]
134
